Target: T1, Alba1 (Sso10b) (Sulfolobus solfataricus, UniProt P60849 1-97)
T1 sequence: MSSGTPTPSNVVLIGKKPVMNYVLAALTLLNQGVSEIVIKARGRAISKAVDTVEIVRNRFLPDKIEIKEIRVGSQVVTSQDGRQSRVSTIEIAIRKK
Experiment: EMSA
Metric: pKd
Bear in mind: pKd is minus log10 of a mol/L concentration; give just that figure.

(Q) // returns reported pKd for input CCTCGGTGCTAAGTTGATGCTGGTACTCGGAGTATCCCG (ssDNA) [39 mer ssDNA]
(A) 6.57
